# target-under-test: Melanocortin receptor 4 (Homo sapiens)
# Sequence (P32245 whole entry): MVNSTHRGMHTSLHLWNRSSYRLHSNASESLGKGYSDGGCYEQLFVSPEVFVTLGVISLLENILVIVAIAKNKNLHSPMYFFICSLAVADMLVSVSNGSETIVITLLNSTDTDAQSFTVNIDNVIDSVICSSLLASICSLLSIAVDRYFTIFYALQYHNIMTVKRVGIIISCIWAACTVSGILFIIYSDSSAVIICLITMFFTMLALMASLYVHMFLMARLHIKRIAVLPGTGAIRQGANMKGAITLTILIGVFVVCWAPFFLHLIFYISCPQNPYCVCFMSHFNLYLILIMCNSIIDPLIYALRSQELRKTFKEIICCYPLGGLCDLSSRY
Listing of recorded pKi by entry.
// pKi: -log10(molar conc.)

CCN(CC)Cc1ccccc1N1CCN(C(=O)[C@@H](Cc2ccc(Cl)cc2)NC(=O)[C@H]2Cc3ccccc3CN2)CC1; 7.85
CN1CCN(Cc2ccccc2)CC1; 5.70
CCN(CC)CC(c1ccccc1OC)N1CCN(C)CC1 (stereo not drawn); 6.72
CCN(CC)CC(Cc1ccccc1)N1CCN(C)CC1 (stereo not drawn); 7.40
CCN(CC)CC(c1ccc(C(F)(F)F)cc1)N1CCN(C)CC1 (stereo not drawn); 6.70

In: Looking for the measured pKi of CCN(CC)CC(CCc1ccccc1)N1CCN(C)CC1 (stereo not drawn) , can you help?
Out: 6.89

In: What about COC(=O)NCC(c1ccccc1F)N1CCN(C)CC1 (stereo not drawn) ?
Out: 6.32

In: What about "CCN(CC)C[C@H](c1ccccc1F)N1CCN(C)CC1" ?
Out: 7.85

----------
# target-under-test: Melanocortin receptor 4 (Homo sapiens)
Listing of recorded pKi by entry.
// pKi: -log10(molar conc.)

Below, each entry is followed by its recorded pKi result.
CC(c1ccccc1)N1CCN(C)CC1 (stereo not given); 6.15
CCN(CC)CC(CCCc1ccccc1)N1CCN(C)CC1 (stereo not given); 6.96
CCN(CC)C(=O)C(c1ccccc1F)N1CCN(C)CC1 (stereo not given); 6.90
CN1CCN(C(CNS(C)(=O)=O)c2ccccc2F)CC1 (stereo not given); 6.33

In: Looking for the measured pKi of CCN(CC)CC(c1ccccc1C(F)(F)F)N1CCN(C)CC1 (stereo not given) , can you help?
Out: 7.40
